molecular target: CYP2D6 (Homo sapiens, UniProt P10635); construct: purchased Promega (P450-Glo Screening Systems); assay: Cytochrome P450 inhibition (P450-Glo), CYP2D6; type: in vitro ADME; settings: human, probe Luciferin-ME EGE; read-out: CYP2D6 inhibition: not inhibited at concentrations up to (abstract)
Sequence (P10635 whole entry): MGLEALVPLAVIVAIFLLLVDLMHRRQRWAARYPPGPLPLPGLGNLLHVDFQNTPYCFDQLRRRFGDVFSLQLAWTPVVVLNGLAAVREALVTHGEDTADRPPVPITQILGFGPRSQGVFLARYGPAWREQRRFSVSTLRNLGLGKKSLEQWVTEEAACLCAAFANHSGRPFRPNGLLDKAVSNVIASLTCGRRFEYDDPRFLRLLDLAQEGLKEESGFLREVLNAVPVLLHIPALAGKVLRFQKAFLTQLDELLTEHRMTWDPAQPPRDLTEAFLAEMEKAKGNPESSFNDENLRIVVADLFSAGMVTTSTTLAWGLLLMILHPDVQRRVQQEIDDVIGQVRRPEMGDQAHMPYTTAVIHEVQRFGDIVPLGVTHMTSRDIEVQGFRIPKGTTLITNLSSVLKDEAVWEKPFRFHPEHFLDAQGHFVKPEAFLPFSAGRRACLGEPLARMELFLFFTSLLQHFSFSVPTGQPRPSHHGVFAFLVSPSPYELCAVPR
We begin with a simple list: items and their reported IC50.
Endpoint name: IC50

• OCC12CC3CC(C1)C(c1ccc(O)cc1)C(C3)C2 (centres unmarked) [5a/b] = > 62.5 µM
• Oc1ccc(C2CCC3(CC2)CC(O)C3)cc1 (racemic) [(±)-11, 7-(4-hydroxyphenyl)spiro[3.5]nonan-2-ol] = > 62.5 µM
